Recorded IC90, one value per entry.
System: Acinetobacter baumannii ATCC17961
Assay protocol: Antimicrobial susceptibility testing: 90% growth inhibitory concentration (IC90) determination in Iso-Sensitest broth, OD600 growth
Format: cell-based
Condition details: Acinetobacter baumannii, ATCC17961, 16 h, strain ATCC 17961, OD600 growth over 16 h, read-out: A. baumannii ATCC 17961 IC90
Where a name gives a salt, the structure may show the parent alone.

{"Molecule": "C#CCn1cc(-c2cnc3c(Nc4ccc(C(=O)NCCOCCN)c(Cl)c4)nccn23)c(C(F)(F)F)n1", "IC90 / µM": 0.047}
{"Molecule": "CCc1cc(Nc2nccn3c(-c4cn(C(C)C)nc4C(F)(F)F)cnc23)ccc1C(=O)NCCOCCN [Example 27, hydrochloride]", "IC90 / µM": 0.306}
{"Molecule": "CCc1cc(Nc2nccn3c(-c4cn(CCN5CCCC5)nc4C(F)(F)F)cnc23)ccc1C(=O)NCCOCCN", "IC90 / µM": 1.39}
{"Molecule": "CCc1cc(Nc2nccn3c(-c4cn(CC(N)=O)nc4C(F)(F)F)cnc23)ccc1C(=O)NC", "IC90 / µM": 2.49}
{"Molecule": "Cc1cc(Nc2nccn3c(-c4cn(CC#N)nc4C(F)(F)F)cnc23)ccc1C(=O)NCC(=O)N[C@H]1CCNC1", "IC90 / µM": 1.06}
{"Molecule": "O=C(c1ccc(Nc2nccn3c(-c4cn(C(F)F)nc4C(F)(F)F)cnc23)cc1Cl)N1CC2(C1)CN(C(=O)[C@@H]1CCCN1)C2", "IC90 / µM": 0.75}
{"Molecule": "CCc1cc(Nc2nccn3c(-c4cn(CC(F)F)nc4C(F)F)cnc23)ccc1C(=O)N[C@H]1C[C@@H](NC(=O)[C@@H]2C[C@@H](O)CN2)C1", "IC90 / µM": 0.489}

###

System: Acinetobacter baumannii ATCC17961
Assay protocol: Antimicrobial susceptibility testing: 90% growth inhibitory concentration (IC90) determination in Iso-Sensitest broth, OD600 growth
Format: cell-based
Condition details: Acinetobacter baumannii, ATCC17961, 16 h, strain ATCC 17961, OD600 growth over 16 h, read-out: A. baumannii ATCC 17961 IC90
Procedure: Antimicrobial Susceptibility Testing: 90% Growth Inhibitory Concentration (IC90) Determination The in vitro antimicrobial activity of the compounds was determined according to the following procedure: The assay used a 10-points Iso-Sensitest broth medium to measure quantitatively the in vitro activity of the compounds against Acinetobacter baumannii ATCC17961 or ATCC17968. […]
Recorded IC90, one value per entry.

{"Compound": "O=C(c1ccc(Nc2nccn3c(-c4c[nH]nc4C(F)(F)F)cnc23)cc1Cl)N1CCN(C(=O)C2(O)CCCNC2)CC1 (stereo not drawn) [Example 352]", "IC90 / nM": 229}
{"Compound": "C#CCn1cc(-c2cnc3c(Nc4ccc(C(=O)N5CCN(C(=O)C6CCNCC6)CC5)c(CC)c4)nccn23)c(C(F)F)n1 [Example 730]", "IC90 / nM": 475}
{"Compound": "CCc1cc(Nc2nccn3c(-c4cn(CC(F)F)nc4C(F)F)cnc23)ccc1C(=O)N1CCN(C(=O)[C@H](N)C(C)C)CC1 [Example 768]", "IC90 / nM": 916}

###

Tested on: Acinetobacter baumannii ATCC17961
Assay protocol: Antimicrobial susceptibility testing: 90% growth inhibitory concentration (IC90) determination in Iso-Sensitest broth, OD600 growth
Format: cell-based
Condition details: Acinetobacter baumannii, ATCC17961, 16 h, strain ATCC 17961, OD600 growth over 16 h, read-out: A. baumannii ATCC 17961 IC90
Counter-ions that a name gives are not always drawn.
Response field label: string, one of true (IC90 strictly below 300 nM) or false.

{"Compound": "C#CC(C)n1cc(-c2cnc3c(Nc4ccc(C(=O)N5CCN(C(=O)C(C)N)CC5)c(CC)c4)nccn23)c(C(F)F)n1 (stereo in doubt)", "Assigned category": "false"}
{"Compound": "C#CCNCCCNC(=O)c1ccc(Nc2nccn3c(-c4c[nH]nc4C(F)(F)F)cnc23)cc1CC", "Assigned category": "false"}
{"Compound": "C#CCn1cc(-c2cnc3c(Nc4cc(C)c(C(=O)N5CCN(C(=O)[C@H]6CC[C@H](O)N6)CC5)c(F)c4)nccn23)c(C(F)(F)F)n1", "Assigned category": "true"}
{"Compound": "O=C(NC1CCNCC1)c1ccc(Nc2nccn3c(-c4c[nH]nc4C(F)(F)F)cnc23)cc1Cl", "Assigned category": "false"}
{"Compound": "CCc1cc(Nc2nccn3c(-c4cn(CC#N)nc4C(F)(F)F)cnc23)ccc1C(=O)NCCCNC(=O)[C@H]1CC[C@@H](N)C1 [Example 484, formate]", "Assigned category": "true"}
{"Compound": "CNC(=O)c1ccc(Nc2nccn3c(-c4cn(CC(N)=O)nc4C(F)(F)F)cnc23)cc1Cl", "Assigned category": "false"}
{"Compound": "Cc1cc(Nc2nccn3c(-c4c[nH]nc4C(F)(F)F)cnc23)ccc1C(=O)N1CCN(C(=O)[C@H]2CCNC2)CC1", "Assigned category": "false"}
{"Compound": "O=C(c1ccc(Nc2nccn3c(-c4c[nH]nc4C(F)(F)F)cnc23)cc1Cl)N1CCN(C(=O)[C@@]2(O)CCCNC2)CC1", "Assigned category": "false"}
{"Compound": "O=C(c1ccc(Nc2nccn3c(-c4c[nH]nc4C(F)(F)F)cnc23)cc1Cl)N1CCN(C(=O)[C@@H]2CCNC2)CC1", "Assigned category": "true"}
{"Compound": "CCc1cc(Nc2nccn3c(-c4c[nH]nc4C(F)(F)F)cnc23)ccc1C(=O)NCCNC(=O)N1CC[C@H](N)C1", "Assigned category": "false"}
{"Compound": "Cc1cc(Nc2nccn3c(-c4c[nH]nc4C(F)(F)F)cnc23)ccc1C(=O)N1CCN(C(=O)[C@@H]2C[C@@H](O)CN2)CC1 [Example 479, hydrochloride]", "Assigned category": "false"}
{"Compound": "CCc1cc(Nc2nccn3c(-c4c[nH]nc4C(F)(F)F)cnc23)ccc1C(=O)NCCOCCN1CCCC1", "Assigned category": "false"}
{"Compound": "CCc1cc(Nc2nccn3c(-c4cn(CC#N)nc4C(F)F)cnc23)ccc1C(=O)N1CCN(C(=O)[C@H]2C[C@H](N)C2)CC1", "Assigned category": "false"}

###

System: Acinetobacter baumannii ATCC17961
Assay protocol: Antimicrobial susceptibility testing: 90% growth inhibitory concentration (IC90) determination in Iso-Sensitest broth, OD600 growth
Type: cell-based
Condition details: Acinetobacter baumannii, ATCC17961, 16 h, strain ATCC 17961, OD600 growth over 16 h, read-out: A. baumannii ATCC 17961 IC90
Structures can show the parent of a compound that is named as a salt.
Binning rule for recorded IC90: range A = under 300 nM, range B = from 300 nM up to 900 nM, range C = 900 nM and over

{"Compound": "O=C(NC1CCC(NC(=O)[C@H]2C[C@H](O)CN2)C1)c1ccc(Nc2nccn3c(-c4c[nH]nc4C(F)(F)F)cnc23)cc1Cl (mixture of isomers)", "Tgt": "Acinetobacter baumannii ATCC17961", "Assigned category": "range C"}
{"Compound": "CCc1cc(Nc2nccn3c(-c4cn(CC#N)nc4C(F)(F)F)cnc23)ccc1C(=O)N[C@H](C)CNC(=O)[C@@H]1C[C@@H](O)CN1", "Tgt": "Acinetobacter baumannii ATCC17961", "Assigned category": "range B"}
{"Compound": "Cc1cc(Nc2nccn3c(-c4cn(CC#N)nc4C(F)(F)F)cnc23)cc(F)c1C(=O)N[C@H](C)CNC(=O)[C@@H]1C[C@@H](O)CN1", "Tgt": "Acinetobacter baumannii ATCC17961", "Assigned category": "range C"}
{"Compound": "CNC(=O)c1ccc(Nc2nccn3c(-c4cn(Cc5cc[nH]n5)nc4C(F)(F)F)cnc23)cc1Cl", "Tgt": "Acinetobacter baumannii ATCC17961", "Assigned category": "range A"}
{"Compound": "CCc1cc(Nc2nccn3c(-c4c[nH]nc4C(F)(F)F)cnc23)ccc1C(=O)NCCOCCN1CCOCC1", "Tgt": "Acinetobacter baumannii ATCC17961", "Assigned category": "range C"}
{"Compound": "CCc1cc(Nc2nccn3c(-c4cn(C(C)C#N)nc4C(F)(F)F)cnc23)ccc1C(=O)NCCOCCN1CCOCC1 (centres unmarked)", "Tgt": "Acinetobacter baumannii ATCC17961", "Assigned category": "range B"}
{"Compound": "CCc1cc(Nc2nccn3c(-c4cn(Cc5csc(C)n5)nc4C(F)(F)F)cnc23)ccc1C(=O)NCCCNCCCCNCCCN [Example 82, hydrochloride]", "Tgt": "Acinetobacter baumannii ATCC17961", "Assigned category": "range C"}
{"Compound": "CCc1cc(Nc2nccn3c(-c4cn(CCN)nc4C(F)(F)F)cnc23)ccc1C(=O)NC", "Tgt": "Acinetobacter baumannii ATCC17961", "Assigned category": "range C"}
{"Compound": "CCc1cc(Nc2nccn3c(-c4cn(C)nc4C(F)(F)F)cnc23)ccc1C(=O)NCCCNC(=O)[C@@H]1C[C@@H](O)CN1", "Tgt": "Acinetobacter baumannii ATCC17961", "Assigned category": "range C"}
{"Compound": "CN(C)C(=O)c1ccc(Nc2nccn3c(-c4c[nH]nc4C(F)(F)F)cnc23)cc1Cl", "Tgt": "Acinetobacter baumannii ATCC17961", "Assigned category": "range B"}
{"Compound": "CCc1cc(Nc2nccn3c(-c4cn(CCF)nc4C(F)(F)F)cnc23)ccc1C(=O)NCC1CC1N (centres unmarked)", "Tgt": "Acinetobacter baumannii ATCC17961", "Assigned category": "range A"}
{"Compound": "N#CCNC(=O)c1ccc(Nc2nccn3c(-c4cn(CC#N)nc4C(F)(F)F)cnc23)cc1Cl", "Tgt": "Acinetobacter baumannii ATCC17961", "Assigned category": "range A"}
{"Compound": "CCc1cc(Nc2nccn3c(-c4cn(CCOC(F)(F)F)nc4C(F)(F)F)cnc23)ccc1C(=O)NCCOCCN", "Tgt": "Acinetobacter baumannii ATCC17961", "Assigned category": "range A"}
{"Compound": "CCc1cc(Nc2nccn3c(-c4cn(CC(F)F)nc4C(F)(F)F)cnc23)ccc1C(=O)NCCNC(=O)[C@@H]1CC[C@@H](N)C1 [Example 490, formate]", "Tgt": "Acinetobacter baumannii ATCC17961", "Assigned category": "range A"}
{"Compound": "Cc1cc(Nc2nccn3c(-c4c[nH]nc4C(F)(F)F)cnc23)ccc1C(=O)N1CCN(C(=O)CCCN)CC1", "Tgt": "Acinetobacter baumannii ATCC17961", "Assigned category": "range B"}
{"Compound": "C[C@@H](NC(=O)c1ccc(Nc2nccn3c(-c4cn(CC#N)nc4C(F)(F)F)cnc23)cc1Cl)C(=O)N1CC[C@@H](N)C1", "Tgt": "Acinetobacter baumannii ATCC17961", "Assigned category": "range B"}
{"Compound": "CCc1cc(Nc2nccn3c(-c4c[nH]nc4C(F)(F)F)cnc23)ccc1C(=O)NCC1CCN(CC2CNC2)C1 (centres unmarked)", "Tgt": "Acinetobacter baumannii ATCC17961", "Assigned category": "range B"}
